Where do the numbers come from? From paper PMC4048812.

target: EGFR kinase domain (Homo sapiens); assay: Radiometric kinase assay of Tail Peptide A phosphorylation; format: biochemical
Sequence (P00533 696-1022): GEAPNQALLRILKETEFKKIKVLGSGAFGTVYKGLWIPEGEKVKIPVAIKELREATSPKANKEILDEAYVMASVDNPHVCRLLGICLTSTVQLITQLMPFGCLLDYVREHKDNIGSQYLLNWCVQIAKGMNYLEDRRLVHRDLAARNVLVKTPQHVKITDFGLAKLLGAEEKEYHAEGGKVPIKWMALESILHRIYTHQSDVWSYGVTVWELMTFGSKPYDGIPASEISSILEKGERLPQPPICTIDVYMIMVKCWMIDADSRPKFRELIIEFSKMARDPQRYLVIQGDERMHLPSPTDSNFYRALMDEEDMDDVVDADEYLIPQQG
Where no end group is shown, it is not given here.
value kind: EC50 (µM)

sequence text | value kind | u | obs value
RAHEEIAHFFFAKKK [Peptide C variant] | EC50 | µM | 45
